Numbers sourced from ChEMBL document CHEMBL1201862.

# Tested on: BT-549
# measurement_notes: NCI tumour cell line growth inhibition, 48 h
The source made the active and inactive calls. Cut-off read from the data, not from the text of the source: active = GI50 up to about 1.1 µM and inactive = higher.
Parameter call: string, one of active, inactive

OCC1CCCCCCCCCCC12SCCCS2 (stereo not given)
inactive
COc1ccc2c(-c3cc4ccccc4o3)cc(=O)oc2c1
inactive
CCOC(=O)c1cc2cc([N+](=O)[O-])ccc2oc1=O
inactive
COC(=O)c1ccccc1CC1Cc2c(C)ccc(C)c2C1=O (stereo not given)
inactive
COc1cc(/C=C2\CCC(CN(C)C)C2=O)ccc1OC(=O)c1ccccc1 (stereo not given)
inactive
CC(=O)Nc1ccc2nncnc2c1
inactive
c1ccc2c(c1)c1c3c(c4c(n32)=NCCN4)CCC1
inactive
Cc1cccc(C(O)c2ccccn2)c1O (stereo not given)
inactive
COc1cccc([C@H]2CC(=O)c3cc4c(cc3N2)OCO4)c1
inactive
CCOC(=O)c1nnsc1NC(=O)NN
inactive

Could you please tell me the result logged for C[n+]1c2ccccc2n2c3ccccc3c(NCCCn3ccnc3)c(C#N)c21 in this assay? inactive

Could you please tell me the result logged for COC1=C[C@]2(CCC(=O)O2)[C@@H]2Cc3ccccc3[C@H](O)[C@@H]2C1=O in this assay? inactive

* * *

# Tested on: LOX IMVI
# measurement_notes: NCI tumour cell line growth inhibition, 48 h
The source made the active and inactive calls. Cut-off read from the data, not from the text of the source: active = GI50 up to about 1.1 µM and inactive = higher.
quantity_measured: GI50

Could I get GI50 for every one of these entries?
1. Cc1ccc(S(=O)(=O)NC(=O)NCCc2ccccc2)cc1
2. O=C(NNC(=O)/C(=C/c1cccc([N+](=O)[O-])c1)NC(=O)c1ccccc1)Nc1ccc(Cl)cc1
3. CC12O[C@H](c3ccccc3)[C@H](c3ccccc3)N1C(=O)C1(C(=O)OCc3ccccc3)CC12 (stereo not given in full)
4. O=c1cc(NNc2cccc(F)c2)[nH]c(=S)[nH]1
5. O=c1[nH]c2ccc(CC(=S)N3CCN(c4ccccc4)CC3)cc2o1

> 100 µM (inactive)
15.6 µM (inactive)
> 100 µM (inactive)
49.3 µM (inactive)
> 100 µM (inactive)

* * *

# System: A549
# measurement_notes: NCI tumour cell line growth inhibition, 48 h
Activity calls are given as the source filed them. Rule as the data show it: active = GI50 up to about 1.1 µM and inactive = higher.
Parameter call: string, one of true (active), false (inactive)

COc1ccc(C[C@H]2NC[C@H](OC(C)=O)[C@H]2OC(C)=O)cc1
true
C=C(C)C(CC=C(C)C)Cc1c(O)cc(OC)c2c1OC(c1ccc(O)cc1O)C(O)C2=O (stereo not drawn)
false
COc1cc(C2S/C(=C/c3ccccc3)C(=O)N2c2ccc([N+](=O)[O-])cc2)cc(OC)c1OC (stereo not drawn)
false
COC(=O)c1ccccc1Nc1ccccc1C(=O)OC
false
O=C(CCNC12CC3CC(CC(C3)C1)C2)c1ccccc1
false

Could you please tell me the result logged for CC(C)=NN/C(=N\c1ccc(Cl)cc1)NS(=O)(=O)c1cc(Cl)c(Oc2ccc([N+](=O)[O-])cc2Cl)c(Cl)c1 in this assay? false

Could you please tell me the result logged for N#Cc1ccccc1/C=N/O in this assay? false

Could you please tell me the result logged for Cc1oc2ccccc2c(=O)c1Cn1nnc2ccccc21 in this assay? false

Could you please tell me the result logged for CC(=O)OCCCOCn1c(Cc2ccccc2)c(C)c(=O)[nH]c1=O in this assay? false

Could you please tell me the result logged for O=C1CCCCC/C1=C\c1ccc(F)cc1 in this assay? false

* * *

Give GI50 for every item shown.
# System: SK-MEL-2
# measurement_notes: NCI tumour cell line growth inhibition, 48 h
Activity calls are given as the source filed them. Cut-off read from the data, not from the text of the source: active = GI50 up to about 1.1 µM and inactive = higher.

Take a look at these entries with their results.
CCOC(=O)c1c(N)sc2c1C(C(=O)OCC)CCCC2 (stereo unspecified)
94.4 µM (inactive)
COC1=C(C)C(=O)c2c(cc3c(c2O)C(C)(CCC=C(C)C)C(C)O3)C1=O (stereo unspecified)
30.2 µM (inactive)
COc1cc(CNc2c3ccccc3nc3ccccc23)cc(OC)c1OC
2.23 µM (inactive)

Could I get GI50 for every one of these entries?
1. COC1=CC(=O)N(C(=O)C2CSC(C(CO)NC(=O)c3csc(/C=N/O)n3)=N2)C1 (stereo unspecified)
2. N#Cc1nnc2c3c(-c4ccc(Cl)cc4)c(C#N)c(O)nc3nn2c1N
3. Nc1ccc2c(=S)c3ccccc3[nH]c2c1

1. > 100 µM (inactive)
2. 9.84 µM (inactive)
3. 51.9 µM (inactive)

* * *

# Tested on: SF-539
# measurement_notes: NCI tumour cell line growth inhibition, 48 h
Active and inactive are the calls of the source. Cut-off read from the data, not from the text of the source: active = GI50 up to about 1.1 µM and inactive = higher.
quantity_measured: GI50

Take a look at these entries with their results.
O=C(O)c1cn2c3c(cc(N4CCN(CCO)CC4)cc3c1=O)SCC2
46.1 µM (inactive)
C=C(Br)C(C)(Cl)CCC(Br)C(C)(C)Br (configuration not stated)
> 100 µM (inactive)
O=C(O)C1=C(CO)Oc2cc3c(cc2C1c1ccc2c(c1)OCO2)OCO3 (configuration not stated)
> 100 µM (inactive)
OCC(Cn1cncn1)(c1ccc(F)cc1F)n1cncn1 (configuration not stated)
> 100 µM (inactive)
CCCc1[nH]nc(C(N)=O)c1/N=N/N(C)C
48.4 µM (inactive)
CSc1ccccc1NC1=NCCO1
> 100 µM (inactive)
CCC(CON(C)c1ccccc1)(SC)SC
> 100 µM (inactive)
O=C1C(O)=C(CC=C(Cl)Cl)C(=O)c2ccccc21
10 µM (inactive)

Could I get GI50 for every one of these entries?
1. CCOC(=O)c1nc2ccc(C(F)(F)F)cc2nc1Oc1ccc(OC)cc1
2. CCCCCC/C=C\CCCCCCCCCC1=C(CN2CCN(C)CC2)C(=O)C=C(OC)C1=O

> 100 µM (inactive)
15.4 µM (inactive)

Could I get GI50 for every one of these entries?
1. Cn1ncnc1CCc1ccccc1
2. COC(=O)[C@H](CCSC)NC(=O)c1ccc(CNC(=O)/C(C)=C/c2ccccc2)cc1

["> 100 µM (inactive)", "26.5 µM (inactive)"]

* * *

# Tested on: M14
# measurement_notes: NCI tumour cell line growth inhibition, 48 h
Calls of active or inactive are those of the source. Cut-off read from the data, not from the text of the source: active = GI50 up to about 1.1 µM and inactive = higher.
Parameter call: string, one of T = active, F = inactive

Worked cases, answers included:
O=C(NC1=NC2C=CC([N+](=O)[O-])=CC2S1)C(=O)Nn1c(S)nc2ccccc2c1=O (stereo not given)
F
ClC(Cl)(Cl)C1=N[C@H]2[C@H](Br)[C@@H]3O[C@@H](c4ccccc4)[C@H](c4ccccc4)O[C@@H]3[C@H]2O1
F

Could you please tell me the result logged for CC(=O)Nc1ccc2nncnc2c1 in this assay? F

Could you please tell me the result logged for COc1cc2cc(C(=O)N3CC(CCl)c4c3cc(N)c3ccccc43)[nH]c2cc1OCCN(C)C (stereo not given) in this assay? T

Could you please tell me the result logged for O=C(C[n+]1ccccc1)N/N=C(/CCC(=O)N(Cc1ccccc1)Cc1ccccc1)CC(=O)c1ccccc1 in this assay? F

Could you please tell me the result logged for C[n+]1c2ccccc2n2c3ccccc3c(NCCCn3ccnc3)c(C#N)c21 in this assay? F

Could you please tell me the result logged for Nc1ccn(C2OC(CO)C(O)C2(F)F)c(=O)n1 (stereo not given) in this assay? T

* * *

Give GI50 for every item shown.
# Tested on: 786-0
# measurement_notes: NCI tumour cell line growth inhibition, 48 h
Calls of active or inactive are those of the source. No stated cut-off is given here; in the data, active = GI50 up to about 1.1 µM and inactive = higher.

CCOc1ccc(-c2nc(-c3oc4ccccc4c(=O)c3OC(C)=O)cs2)cc1
> 10 µM (inactive)

Could I get GI50 for every one of these entries?
1. FC(F)(F)c1n[nH]c(SCc2ccc(Cl)cc2)n1
2. O=C(OCc1ccccc1C1CSCSC1)c1cc(C(=O)OCc2ccccc2C2CSCSC2)c(C(=O)OCc2ccccc2C2CSCSC2)cc1C(=O)OCc1ccccc1C1CSCSC1
3. OCC(Cn1cncn1)(c1ccc(F)cc1F)n1cncn1 (stereo not given)
4. O=C(CCl)N1CCN(c2ccccn2)CC1

["> 100 µM (inactive)", "65 µM (inactive)", "66.1 µM (inactive)", "18.4 µM (inactive)"]

* * *

# Tested on: HOP-92
# measurement_notes: NCI tumour cell line growth inhibition, 48 h
The source made the active and inactive calls. Cut-off read from the data, not from the text of the source: active = GI50 up to about 1.1 µM and inactive = higher.
quantity_measured: GI50

Could I get GI50 for every one of these entries?
1. Cc1cc(O)c(C(C)C)cc1SC#N
2. NC(=O)C1=CC2C3C=CC2(O)C(=O)OC3O1 (stereo unspecified)
3. c1ccc(-c2nc3sccn3n2)cc1
4. COC(=O)c1c2c(cc3c1CC1(C3)Cc3cc4c(c(C(=O)OC)c3C1)CCCC4)CCCC2
5. CN1C2=Nc3n(C)c4ccccc4[n+]3CN2c2ccccc21
6. O=C1OC(c2ccccc2)N(C(=O)c2ccccc2)C1Cc1ccc(OCc2ccccc2)cc1 (stereo unspecified)

["10.7 µM (inactive)", "2.43 µM (inactive)", "74.3 µM (inactive)", "> 100 µM (inactive)", "22.6 µM (inactive)", "3.91 µM (inactive)"]
